systemName: Dual specificity protein phosphatase 3 (Homo sapiens) (UniProt P51452)
Sequence (P51452 whole entry, looked up): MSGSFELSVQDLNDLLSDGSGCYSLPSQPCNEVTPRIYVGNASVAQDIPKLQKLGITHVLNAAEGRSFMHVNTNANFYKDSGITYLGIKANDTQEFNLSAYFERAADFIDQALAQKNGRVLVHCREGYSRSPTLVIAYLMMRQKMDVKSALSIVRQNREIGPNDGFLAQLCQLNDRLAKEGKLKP
method: VHR1 phosphatase inhibitors, biochemical (AID 1878)
measurementSetup: recombinant VHR phosphatase, fluorogenic substrate; at 13.3 µM; hits give high values
Among all 1,000 compounds or so, about 200 (20%) were called active. Only a sample is shown. Results with a measured potency or affinity are listed apart.
metricName: inhibition (%)
# value in %; strip the unit string

Below, each entry is followed by its recorded inhibition result.
CCN(CC)CCCN(Cc1cc2cc3c(cc2[nH]c1=O)OCO3)C(=S)NCCCN(C)C: -12.7
CC1=C(C(=O)OCC2CCCCC2)C(c2ccc(F)cc2)NC(=O)N1 (stereo unspecified): -8.4
CCOc1ccc2nc(N3CCCC(C(=O)NCCCN4C(C)CCCC4C)C3)sc2c1 (stereo unspecified): -12.1
CC1=C(C(=O)OC(C)C)C(c2ccc(Cl)cc2)n2c(s/c(=C\c3ccc(OCC(=O)O)cc3)c2=O)=N1 (stereo unspecified): 97.4
CCC(C)(C)NC(=O)CN(C(=O)CCC(=O)Nc1nccs1)c1ccc2c(c1)OCCO2: 1.8

Identify measured inhibition associated with CC1CCCN(CCCNC(=O)C2CCN(S(=O)(=O)N3CCC4(CC3)OCCO4)CC2)C1 (stereo unspecified)
2.1

# return recorded inhibition for entry "O=C(COc1ccc(S(=O)(=O)N2CCOCC2)cc1)N1CCN(c2ccccc2)CC1"
7.2

Quick one: give measured inhibition for "CSc1ncc(C(=O)Nc2ccccc2Cl)c(C)n1"
-1.1

Please report the measured inhibition for O=C(N=C1SC2CS(=O)(=O)CC2N1Cc1ccccc1)C1CCCO1 (stereo unspecified)
-9.5

Identify inhibition associated with the compound "COc1ccccc1C(=O)NNC(=O)CCN1C(=O)/C(=C\c2ccccc2)SC1=S"
38.1
